Each entry below carries its reported L* (D65).
assay: Spectrocolorimeter (CM-5) measurement of samples before and after adsorption and desorption measurement; format: physicochemical; settings: before adsorption and desorption measurement
measurement_label: L* (D65)

1) NCCCC(=O)O; 87.1
2) O=P([O-])([O-])[O-].[Na+].[Na+].[Na+] [TSP, trisodium phosphate, reference compound]; 98.5
3) N[C@@H](CCC(=O)O)C(=O)[O-].[Na+] [MSG, Na glutamate]; 84.8
4) N=C(N)NCCC[C@H](N)C(=O)O; 99.0

====

assay: Spectrocolorimeter (CM-5) measurement of samples before and after adsorption and desorption measurement; format: physicochemical; conditions: after adsorption and desorption measurement
measurement_label: b* (D65)

1) N=C(N)NCCC[C@H](N)C(=O)O; 0.1
2) O=P([O-])([O-])[O-].[Na+].[Na+].[Na+] [TSP, trisodium phosphate, reference compound]; 0.1
3) NCCCC(=O)O; −0.9
4) N[C@@H](CCC(=O)O)C(=O)[O-].[Na+] [MSG, Na glutamate]; −0.2

====

Assay: Spectrocolorimeter (CM-5) measurement of samples before and after adsorption and desorption measurement
Type: physicochemical
Settings: before adsorption and desorption measurement
Procedure: Changes in the samples between before and after the measurement of the adsorption and desorption isotherms were measured using Konica Minolta, Inc.'s spectrocolorimeter (CM-5). […] A blank tube, with no sample placed in it, was also subjected to the measurement, through which a measurement in a transparent state was determined. […]
measurement_label: a* (D65)

1) N[C@@H](CCC(=O)O)C(=O)[O-].[Na+] [MSG, Na glutamate]; −0.2
2) O=P([O-])([O-])[O-].[Na+].[Na+].[Na+] [TSP, trisodium phosphate, reference compound]; 0.0
3) NCCCC(=O)O [GABA, γ-aminobutyric acid]; −0.1
4) N=C(N)NCCC[C@H](N)C(=O)O [Arginine, arginine]; −0.1

====

assay: Spectrocolorimeter (CM-5) measurement of samples before and after adsorption and desorption measurement; type: physicochemical; conditions: after adsorption and desorption measurement
// reported L* (D65) per item
measurement_label: L* (D65)

1. N[C@@H](CCC(=O)O)C(=O)[O-].[Na+] [MSG, Na glutamate]; 33.7
2. N=C(N)NCCC[C@H](N)C(=O)O; 94.8
3. NCCCC(=O)O; 26.5
4. O=P([O-])([O-])[O-].[Na+].[Na+].[Na+] [TSP, trisodium phosphate, reference compound]; 92.4

====

assay: Spectrocolorimeter (CM-5) measurement of samples before and after adsorption and desorption measurement; type: physicochemical; conditions: after adsorption and desorption measurement
Below: a set of entries, each annotated with reported a* (D65).
measurement_label: a* (D65)

1) NCCCC(=O)O; −0.3
2) O=P([O-])([O-])[O-].[Na+].[Na+].[Na+] [TSP, trisodium phosphate, reference compound]; −0.1
3) N=C(N)NCCC[C@H](N)C(=O)O; −0.2
4) N[C@@H](CCC(=O)O)C(=O)[O-].[Na+] [MSG, Na glutamate]; −0.1

Reference source for all entries: patent US20250194663A1
